- TARGET OR SYSTEM: Probable G-protein coupled receptor 139 (Homo sapiens)
- Sequence (Q6DWJ6 whole entry): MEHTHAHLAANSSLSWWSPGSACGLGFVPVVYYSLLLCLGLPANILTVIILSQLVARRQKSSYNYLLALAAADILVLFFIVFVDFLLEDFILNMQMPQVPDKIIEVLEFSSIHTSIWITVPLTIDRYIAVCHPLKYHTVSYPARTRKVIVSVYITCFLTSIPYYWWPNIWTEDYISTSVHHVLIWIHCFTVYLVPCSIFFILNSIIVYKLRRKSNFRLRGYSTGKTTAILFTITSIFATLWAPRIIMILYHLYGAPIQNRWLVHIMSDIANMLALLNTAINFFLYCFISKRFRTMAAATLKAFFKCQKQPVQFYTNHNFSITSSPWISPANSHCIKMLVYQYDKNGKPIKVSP
- ASSAY PROCEDURE: Agonist activity at human GPR139 expressed in CHO-K1 cells assessed as induction of beta-arrestin 2 recruitment incubated for 90 mins by PathHunter assay
- Assay type: cell-based
- RECORDED CONDITIONS: cho-k1
For each of the compounds below, state its EC50.
One number for each entry, in nM.

Cc1ccc([C@H](C)NC(=O)Cn2nc3cc(Cl)ccn3c2=O)cc1 = 1
Cc1ccc([C@H](C)NC(=O)Cn2nc3ccccn3c2=O)cc1 = 10

Items follow; give EC50 for each.
1. Cc1ccn2c(=O)n(CC(=O)N[C@@H](C)c3ccc(Cl)c(F)c3)nc2n1
2. Cc1ccc2nn(CC(=O)N[C@@H](C)c3ccc(Cl)c(F)c3)c(=O)n2n1
3. Cc1ccnn2c(=O)n(CC(=O)N[C@@H](C)c3ccc(Cl)c(F)c3)nc12
4. C[C@H](NC(=O)Cn1nc2ccc(F)cn2c1=O)c1ccc(Cl)c(F)c1

(A)
1: 1; 2: 10; 3: 10; 4: 1

====

For each of the compounds below, state its EC50.
- TARGET OR SYSTEM: Probable G-protein coupled receptor 139 (Rattus norvegicus, UniProt P0C0W8)
- Sequence (P0C0W8 whole entry): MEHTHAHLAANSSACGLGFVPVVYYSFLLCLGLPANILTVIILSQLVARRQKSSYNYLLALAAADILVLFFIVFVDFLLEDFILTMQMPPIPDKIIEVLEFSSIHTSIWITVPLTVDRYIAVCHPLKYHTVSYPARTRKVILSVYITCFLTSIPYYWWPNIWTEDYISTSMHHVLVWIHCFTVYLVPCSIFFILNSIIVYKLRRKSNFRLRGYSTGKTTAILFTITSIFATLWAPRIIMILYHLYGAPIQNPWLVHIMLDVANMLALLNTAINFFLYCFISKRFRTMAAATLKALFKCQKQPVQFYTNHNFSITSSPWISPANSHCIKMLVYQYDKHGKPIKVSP
- ASSAY PROCEDURE: Agonist activity at rat GPR139 expressed in CHO-K1 cells assessed as increase in calcium flux by calcium 5 dye based FLIPR assay
- Format: cell-based
- RECORDED CONDITIONS: cho-k1
Numbers only, in nM.

Items follow; give EC50 for each.
1. C[C@H](NC(=O)Cn1nc2c(N3CCC34CN(C)C4)cccn2c1=O)c1ccc(Cl)c(F)c1
2. CC(C(=O)N[C@@H](C)c1ccc(Cl)c(F)c1)n1nc2ccccn2c1=O (stereo in doubt; form 2)
3. Cc1cnc2nn(CC(=O)N[C@@H](C)c3ccc(Cl)c(F)c3)c(=O)n2c1
4. COC1CCN(c2ccn3c(=O)n(CC(=O)N[C@@H](C)c4ccc(OC(F)(F)F)cc4)nc3c2)CC1

(A)
[10, 1, 1, 1]

====

For each of the molecules below, state its Emax.
- TARGET OR SYSTEM: UniProt Q6DWJ6
- Sequence (whole entry): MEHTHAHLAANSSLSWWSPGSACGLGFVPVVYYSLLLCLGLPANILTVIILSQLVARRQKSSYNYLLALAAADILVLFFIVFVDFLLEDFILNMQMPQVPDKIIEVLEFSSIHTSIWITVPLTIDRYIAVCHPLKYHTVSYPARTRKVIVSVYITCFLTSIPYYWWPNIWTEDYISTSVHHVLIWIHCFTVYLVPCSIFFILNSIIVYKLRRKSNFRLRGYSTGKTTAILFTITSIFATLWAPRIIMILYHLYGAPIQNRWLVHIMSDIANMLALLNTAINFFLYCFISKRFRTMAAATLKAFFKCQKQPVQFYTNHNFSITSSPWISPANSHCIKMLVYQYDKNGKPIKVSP
- ASSAY PROCEDURE: Agonist activity at human GPR139 expressed in CHO-K1 cells assessed as increase in calcium flux by calcium 5 dye based FLIPR assay relative to JNJ63533054
- Type: functional, cell-based
- RECORDED CONDITIONS: filed as agonist

Please review the following examples before continuing.
C[C@H](NC(=O)Cn1nc2cc(N3CCN(C)CC3)ccn2c1=O)c1ccc(OC(F)(F)F)cc1 = 50%
C[C@H](NC(=O)Cn1nc2ccc(C#N)cn2c1=O)c1ccc(Cl)c(F)c1 = > 80%
O=C(Cn1nc2ccc(F)cn2c1=O)NC1(c2cccc(Cl)c2)CC1 = > 80%
COc1ccn2c(=O)n(CC(=O)N[C@@H](C)c3ccc(C)cc3)nc2c1 = > 80%

Items follow; give Emax for each.
1. Cc1ccnn2c(=O)n(CC(=O)N[C@@H](C)c3ccc(Cl)c(F)c3)nc12
2. C[C@H](NC(=O)Cn1nc2ccc(Cl)nn2c1=O)c1ccc(OC(F)(F)F)cc1
3. C[C@H](NC(=O)Cn1nc2c(C3CC3)ccnn2c1=O)c1ccc(Cl)c(F)c1
4. C[C@H](NC(=O)Cn1nc2ccc(F)cn2c1=O)c1ccc(Cl)cc1
5. C[C@H](NC(=O)Cn1nc2c(N3CCOCC3)ccnn2c1=O)c1ccc(Cl)c(F)c1
6. COc1ccc2nn(CC(=O)N[C@@H](C)c3ccc(C)cc3)c(=O)n2c1

(A)
1. > 80%
2. 50%
3. > 80%
4. > 80%
5. > 80%
6. > 80%

Items follow; give Emax for each.
1. Cc1cn2c(=O)n(CC(=O)N[C@@H](C)c3ccc(OC(F)(F)F)cc3)nc2cn1
2. C[C@H](NC(=O)Cn1nc2ccc(C3CC3)nn2c1=O)c1ccc(OC(F)(F)F)cc1
3. Cc1ccc([C@H](C)NC(=O)Cn2nc3ccccn3c2=O)cc1

(A)
1: > 80%; 2: > 80%; 3: > 80%

Items follow; give Emax for each.
1. C[C@H](NC(=O)Cn1nc2cccnn2c1=O)c1ccc(C2CC2)cc1
2. C[C@H](NC(=O)Cn1nc2ccccn2c1=O)c1ccc(OC(F)F)cc1
3. O=C(Cn1nc2cccnn2c1=O)N[C@H](c1ccc(Cl)c(F)c1)C1CC1
4. C[C@H](NC(=O)Cn1nc2cccc(N3CCOCC3)n2c1=O)c1ccc(Cl)c(F)c1
5. Cc1ccc2nn(CC(=O)N[C@@H](C)c3ccc(Cl)c(F)c3)c(=O)n2n1
6. C[C@H](NC(=O)Cn1nc2cc(N3CCC[C@@H](O)C3)ccn2c1=O)c1ccc(OC(F)(F)F)cc1
7. Cc1ccc([C@H](C)NC(=O)Cn2nc3cccc(Br)n3c2=O)cc1
8. C[C@H](NC(=O)Cn1nc2ncccn2c1=O)c1ccc(C2CC2)cc1

(A)
["50%", "> 80%", "50%", "> 80%", "> 80%", "> 80%", "> 80%", "50%"]

Items follow; give Emax for each.
1. C[C@H](NC(=O)Cn1nc2c(I)ccnn2c1=O)c1ccc(Cl)c(F)c1
2. Cc1ccc([C@H](C)NC(=O)Cn2nc3c(N)cccn3c2=O)cc1

(A)
1. > 80%
2. > 80%

Items follow; give Emax for each.
1. C[C@H](NC(=O)Cn1nc2c(N3CCC34CN(C)C4)cccn2c1=O)c1ccc(Cl)c(F)c1
2. C[C@H](NC(=O)Cn1nc2ncc(Cl)cn2c1=O)c1ccc(Cl)c(F)c1

(A)
50%
> 80%

Items follow; give Emax for each.
1. Cc1ccc([C@H](C)NC(=O)Cn2nc3ncccn3c2=O)cc1Cl
2. Cc1ccc([C@H](C)NC(=O)Cn2nc3c(NC(=O)OC(C)(C)C)cccn3c2=O)cc1
3. C[C@H](NC(=O)Cn1nc2ncccn2c1=O)c1ccc(OC(F)(F)F)c(F)c1

(A)
> 80%
50%
> 80%

Items follow; give Emax for each.
1. Cc1cnn2c(=O)n(CC(=O)N[C@@H](C)c3ccc(Cl)c(F)c3)nc2c1
2. Cc1ccn2c(=O)n(CC(=O)N[C@@H](C)c3ccc(OC(F)(F)F)cc3)nc2n1
3. C[C@H](NC(=O)Cn1nc2c(NC3COC3)ccnn2c1=O)c1ccc(Cl)c(F)c1

(A)
["> 80%", "50%", "> 80%"]

====

For each of the compounds below, state its Emax.
- TARGET OR SYSTEM: Probable G-protein coupled receptor 139 (Homo sapiens) (UniProt Q6DWJ6)
- ASSAY PROCEDURE: Agonist activity at human GPR139 expressed in CHO-K1 cells assessed as induction of beta-arrestin 2 recruitment incubated for 90 mins by PathHunter assay relative to JNJ63533054
- Type: cell-based
- RECORDED CONDITIONS: filed as agonist

C[C@H](NC(=O)Cn1nc2cc(Cl)ccn2c1=O)c1ccc(Cl)c(F)c1 = > 80%
C[C@H](NC(=O)Cn1nc2cc(C#N)ccn2c1=O)c1ccc(Cl)c(F)c1 = 50%
Cc1ccn2c(=O)n(CC(=O)N[C@@H](C)c3ccc(OC(F)(F)F)cc3)nc2c1 = > 80%
Cc1ccc([C@H](C)NC(=O)Cn2nc3ccc(F)cn3c2=O)cc1F = 50%
C[C@H](NC(=O)[C@@H](C)n1nc2ncccn2c1=O)c1ccc(Cl)c(F)c1 = 50%

Items follow; give Emax for each.
1. Cc1cc(Cl)ccc1[C@H](C)NC(=O)Cn1nc2cccnn2c1=O
2. CC(C(=O)N[C@@H](C)c1ccc(Cl)c(F)c1)n1nc2ncccn2c1=O (stereo in doubt; form 2)
3. C[C@H](NC(=O)Cn1nc2c(C(F)(F)F)ccnn2c1=O)c1ccc(Cl)c(F)c1
4. CNc1ccnn2c(=O)n(CC(=O)N[C@@H](C)c3ccc(OC(F)(F)F)cc3)nc12
5. Cc1ccc([C@H](C)NC(=O)Cn2nc3c(NCC(F)F)cccn3c2=O)cc1

(A)
1: 50%; 2: 50%; 3: 50%; 4: 50%; 5: 50%
